tested on: P. falciparum Dd2-B2; assay: Blood-stage dose-response assay (72 hr), Dd2 / Dd2-B2 parent; assay type: cell-based; conditions: Plasmodium falciparum, DD2, read-out: P. falciparum Dd2 EC50
observed_property: EC50 (nM)
Provide the reading as a plain figure in nM.

Lab note: measured EC50 of CCN(CC)S(=O)(=O)c1ccc(Cl)c(C(=O)Nc2ccc3nc(C)sc3c2)c1 was 400

====

tested on: P. falciparum Dd2:T648M (CRISPR edited PfAcAS); experiment: Blood-stage dose-response assay, CRISPR-edited Dd2:T648M line; type: cell-based; settings: Plasmodium falciparum, mean ± SD, n bioreplicates
pEC50: −log10 of the molar value.
Label 1 (yes) when pEC50 is at or above 8; anything below gets 0 (no).

O=C(NNC(=O)c1csnn1)c1ccc(Cl)cc1 [MMV084978] ... 0 (no)
CCN(CC)Cc1cc(Nc2ccnc3cc(Cl)ccc23)ccc1O [Amodiaquine] ... 0 (no)
OC(c1cc(C(F)(F)F)nc2c(C(F)(F)F)cccc12)C1CCCCN1 (stereo not drawn) [Mefloquine] ... 0 (no)
O=C1C(O)=C([C@H]2CC[C@H](c3ccc(Cl)cc3)CC2)C(=O)c2ccccc21 [Atovaquone, reference compound] ... 1 (yes)
C[C@H]1[C@@H](O)O[C@@H]2O[C@@]3(C)CC[C@H]4[C@H](C)CC[C@@H]1[C@@]24OO3 [Dihydroartemisinin] ... 1 (yes)

Is pEC50 at least 8? Consider CCN(CC)S(=O)(=O)c1ccc(Cl)c(C(=O)Nc2ccc3nc(C)sc3c2)c1 [MMV019721]
0 (no)

====

tested on: P. falciparum 3D7 parasites; assay: Metabolomic profiling of compound-treated parasites (LC/MS); assay type: cell-based
Please respond with y when measured Metabolite data: N-Acetyl-L-Alanine is strictly beneath -0.2, and with n in all other cases.

# example entries with known answers
COc1cc2[nH]c(C)c(-c3ccc(Oc4ccc(OC(F)(F)F)cc4)cc3)c(=O)c2cc1Cl [ELQ-300] ... y
N#Cc1cc(NC(=O)[C@H]2c3ccccc3C(=O)N(CC(F)(F)F)[C@@H]2c2cccnc2)ccc1F [SJ733] ... y
Cc1cc(Nc2ccc3ccccc3c2)n2ncnc2n1 [DSM1] ... n

# ---- query molecule ----
Does the reported Metabolite data: N-Acetyl-L-Alanine of CC1(C)N=C(N)N=C(N)N1OCCCOc1cc(Cl)c(Cl)cc1Cl [WR99210] stay below -0.2?
n

====

tested on: P. falciparum 3D7 parasites; experiment: Metabolomic profiling of compound-treated parasites (LC/MS); type: cell-based
observed_property: Metabolite data: NADH

O=C1C(O)=C([C@H]2CC[C@H](c3ccc(Cl)cc3)CC2)C(=O)c2ccccc21 [Atovaquone, reference compound] ... 1.7
O=C(NNC(=O)c1csnn1)c1ccc(Cl)cc1 [MMV084978-1] ... -0.03997
C[C@H]1Cc2c([nH]c3cc(Cl)c(F)cc23)[C@@]2(N1)C(=O)Nc1ccc(Cl)cc12 [NITD609] ... 0.03
CCN(CC)S(=O)(=O)c1ccc(Cl)c(C(=O)Nc2ccc3nc(C)sc3c2)c1 [MMV019721-1] ... 0.3116
CC1(C)N=C(N)N=C(N)N1OCCCOc1cc(Cl)c(Cl)cc1Cl [WR99210] ... 3.14

Could you now consider this next compound?
So, N#Cc1cc(NC(=O)[C@H]2c3ccccc3C(=O)N(CC(F)(F)F)[C@@H]2c2cccnc2)ccc1F [SJ733] ? Its Metabolite data: NADH was 0.5171

Where do these numbers come from? They come from paper PMC8878317.
